- Tested on: RARg:RXRa (NR concentration 270 nM, RXRa partner concentration 90 nM)
- experiment-notes: PBM binding z-score (relative to random genomic background probes); higher = stronger binding; sequences stand for … in GC…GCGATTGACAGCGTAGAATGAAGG
property-name: PBM binding z-score

residue_string=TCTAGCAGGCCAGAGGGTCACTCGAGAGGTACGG system="RARg:RXRa (NR concentration 270 nM, RXRa partner concentration 90 nM)" endpoint_result=2.47
residue_string=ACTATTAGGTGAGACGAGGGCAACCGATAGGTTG system="RARg:RXRa (NR concentration 270 nM, RXRa partner concentration 90 nM)" endpoint_result=1.03
residue_string=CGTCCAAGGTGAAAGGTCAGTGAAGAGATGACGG system="RARg:RXRa (NR concentration 270 nM, RXRa partner concentration 90 nM)" endpoint_result=6.03
residue_string=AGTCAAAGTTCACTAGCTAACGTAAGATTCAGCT system="RARg:RXRa (NR concentration 270 nM, RXRa partner concentration 90 nM)" endpoint_result=4.66
residue_string=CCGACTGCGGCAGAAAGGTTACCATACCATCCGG system="RARg:RXRa (NR concentration 270 nM, RXRa partner concentration 90 nM)" endpoint_result=0.857
residue_string=AATACAAGGTCACTAGGCCAGAGTAGGTACGAAT system="RARg:RXRa (NR concentration 270 nM, RXRa partner concentration 90 nM)" endpoint_result=5.73
residue_string=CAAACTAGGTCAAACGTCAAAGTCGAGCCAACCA system="RARg:RXRa (NR concentration 270 nM, RXRa partner concentration 90 nM)" endpoint_result=4.6
residue_string=AGAATGAGGTTATACGTAGATCAGGGACGAAAGT system="RARg:RXRa (NR concentration 270 nM, RXRa partner concentration 90 nM)" endpoint_result=1.77
residue_string=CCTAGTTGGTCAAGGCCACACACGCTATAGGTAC system="RARg:RXRa (NR concentration 270 nM, RXRa partner concentration 90 nM)" endpoint_result=0.785
residue_string=TCTCCTAGGTCAACGATGGTCAGCTAATCTGCTA system="RARg:RXRa (NR concentration 270 nM, RXRa partner concentration 90 nM)" endpoint_result=4.5
residue_string=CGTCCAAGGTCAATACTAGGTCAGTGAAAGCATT system="RARg:RXRa (NR concentration 270 nM, RXRa partner concentration 90 nM)" endpoint_result=6.92
residue_string=CCAGACCGGTGAAAGGTAACTCAGTCTGGTACGC system="RARg:RXRa (NR concentration 270 nM, RXRa partner concentration 90 nM)" endpoint_result=0.36
residue_string=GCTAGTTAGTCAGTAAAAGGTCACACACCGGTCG system="RARg:RXRa (NR concentration 270 nM, RXRa partner concentration 90 nM)" endpoint_result=4.93
residue_string=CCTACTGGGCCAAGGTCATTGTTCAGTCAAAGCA system="RARg:RXRa (NR concentration 270 nM, RXRa partner concentration 90 nM)" endpoint_result=3.46
residue_string=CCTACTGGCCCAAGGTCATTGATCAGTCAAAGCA system="RARg:RXRa (NR concentration 270 nM, RXRa partner concentration 90 nM)" endpoint_result=3.48
residue_string=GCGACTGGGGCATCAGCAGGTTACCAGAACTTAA system="RARg:RXRa (NR concentration 270 nM, RXRa partner concentration 90 nM)" endpoint_result=0.911
residue_string=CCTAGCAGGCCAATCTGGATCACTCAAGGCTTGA system="RARg:RXRa (NR concentration 270 nM, RXRa partner concentration 90 nM)" endpoint_result=-0.153
residue_string=ATCTCTAGGTAACCAAGTTAAGTGAATGCCGAAC system="RARg:RXRa (NR concentration 270 nM, RXRa partner concentration 90 nM)" endpoint_result=0.245
residue_string=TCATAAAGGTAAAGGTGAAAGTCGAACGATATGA system="RARg:RXRa (NR concentration 270 nM, RXRa partner concentration 90 nM)" endpoint_result=2.14
residue_string=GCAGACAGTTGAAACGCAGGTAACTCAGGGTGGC system="RARg:RXRa (NR concentration 270 nM, RXRa partner concentration 90 nM)" endpoint_result=0.0568
residue_string=TCTCGGAGGACACGAAAGGTTAGAGCTCGACATC system="RARg:RXRa (NR concentration 270 nM, RXRa partner concentration 90 nM)" endpoint_result=1.94
residue_string=GCTTGTATATCAAGGTTAAGAAAGACTAAGCTAA system="RARg:RXRa (NR concentration 270 nM, RXRa partner concentration 90 nM)" endpoint_result=0.526
residue_string=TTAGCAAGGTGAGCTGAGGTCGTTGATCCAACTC system="RARg:RXRa (NR concentration 270 nM, RXRa partner concentration 90 nM)" endpoint_result=1.03
residue_string=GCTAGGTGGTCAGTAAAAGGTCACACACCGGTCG system="RARg:RXRa (NR concentration 270 nM, RXRa partner concentration 90 nM)" endpoint_result=6.23
residue_string=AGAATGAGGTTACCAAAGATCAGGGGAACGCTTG system="RARg:RXRa (NR concentration 270 nM, RXRa partner concentration 90 nM)" endpoint_result=2.1
residue_string=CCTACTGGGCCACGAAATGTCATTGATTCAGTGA system="RARg:RXRa (NR concentration 270 nM, RXRa partner concentration 90 nM)" endpoint_result=0.2
residue_string=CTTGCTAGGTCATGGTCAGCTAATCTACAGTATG system="RARg:RXRa (NR concentration 270 nM, RXRa partner concentration 90 nM)" endpoint_result=3.94
residue_string=GCTAGTAGTTGAAAGGGCAACCGAATGATTCTCG system="RARg:RXRa (NR concentration 270 nM, RXRa partner concentration 90 nM)" endpoint_result=1.22
residue_string=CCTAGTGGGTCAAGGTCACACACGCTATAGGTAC system="RARg:RXRa (NR concentration 270 nM, RXRa partner concentration 90 nM)" endpoint_result=5.74
residue_string=ATATGTAGGTTACATCCGGGTCAATCAGGCTATG system="RARg:RXRa (NR concentration 270 nM, RXRa partner concentration 90 nM)" endpoint_result=3.95
residue_string=TAGCCTAGGTGAGATCGGGCCAGTATACGCTATA system="RARg:RXRa (NR concentration 270 nM, RXRa partner concentration 90 nM)" endpoint_result=-0.235
residue_string=ACTTGCAGGCCAAGGGTCACTCAAGATTAGTCCG system="RARg:RXRa (NR concentration 270 nM, RXRa partner concentration 90 nM)" endpoint_result=4.38
residue_string=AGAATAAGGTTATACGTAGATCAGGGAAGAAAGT system="RARg:RXRa (NR concentration 270 nM, RXRa partner concentration 90 nM)" endpoint_result=1.78
residue_string=TCTAGCTGGCCAGAGGGTCACTCAAGAGGTACGG system="RARg:RXRa (NR concentration 270 nM, RXRa partner concentration 90 nM)" endpoint_result=2.07
residue_string=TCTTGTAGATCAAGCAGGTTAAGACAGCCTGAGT system="RARg:RXRa (NR concentration 270 nM, RXRa partner concentration 90 nM)" endpoint_result=-0.0241
residue_string=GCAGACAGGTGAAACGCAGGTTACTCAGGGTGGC system="RARg:RXRa (NR concentration 270 nM, RXRa partner concentration 90 nM)" endpoint_result=2.09
residue_string=ATCTCTAGGGAAAGATAGTTCAGTGAATGCAAAT system="RARg:RXRa (NR concentration 270 nM, RXRa partner concentration 90 nM)" endpoint_result=0.502
residue_string=CCGACTGGGGCAAAGGTTACCATCCTCAGTACGA system="RARg:RXRa (NR concentration 270 nM, RXRa partner concentration 90 nM)" endpoint_result=3.56
residue_string=TCTAGTTGGACACGGAGGTCACACACGACGGGTA system="RARg:RXRa (NR concentration 270 nM, RXRa partner concentration 90 nM)" endpoint_result=3.95
residue_string=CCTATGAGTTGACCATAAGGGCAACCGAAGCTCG system="RARg:RXRa (NR concentration 270 nM, RXRa partner concentration 90 nM)" endpoint_result=2.18
residue_string=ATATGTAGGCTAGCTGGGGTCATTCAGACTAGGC system="RARg:RXRa (NR concentration 270 nM, RXRa partner concentration 90 nM)" endpoint_result=3.59
residue_string=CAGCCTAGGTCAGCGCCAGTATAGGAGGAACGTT system="RARg:RXRa (NR concentration 270 nM, RXRa partner concentration 90 nM)" endpoint_result=2.85
residue_string=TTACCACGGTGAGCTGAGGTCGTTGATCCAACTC system="RARg:RXRa (NR concentration 270 nM, RXRa partner concentration 90 nM)" endpoint_result=0.212
residue_string=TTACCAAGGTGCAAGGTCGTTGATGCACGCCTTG system="RARg:RXRa (NR concentration 270 nM, RXRa partner concentration 90 nM)" endpoint_result=0.66
residue_string=CCGACTCGGGCAAGGTTACCATAACGCACAGCCA system="RARg:RXRa (NR concentration 270 nM, RXRa partner concentration 90 nM)" endpoint_result=1.01
residue_string=TTACCAGGGTGAGCTGAGGTCGTTGATCCAACTC system="RARg:RXRa (NR concentration 270 nM, RXRa partner concentration 90 nM)" endpoint_result=1.08
residue_string=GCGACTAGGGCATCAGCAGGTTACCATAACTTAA system="RARg:RXRa (NR concentration 270 nM, RXRa partner concentration 90 nM)" endpoint_result=1.12
residue_string=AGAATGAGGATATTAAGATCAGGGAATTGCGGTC system="RARg:RXRa (NR concentration 270 nM, RXRa partner concentration 90 nM)" endpoint_result=0.0101
residue_string=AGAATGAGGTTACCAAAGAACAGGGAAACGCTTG system="RARg:RXRa (NR concentration 270 nM, RXRa partner concentration 90 nM)" endpoint_result=1.93
residue_string=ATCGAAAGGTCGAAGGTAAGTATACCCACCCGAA system="RARg:RXRa (NR concentration 270 nM, RXRa partner concentration 90 nM)" endpoint_result=3.86
residue_string=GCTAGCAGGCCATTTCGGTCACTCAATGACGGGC system="RARg:RXRa (NR concentration 270 nM, RXRa partner concentration 90 nM)" endpoint_result=0.276
